PROCEDURE_DETAILS: MM1S myeloma cell viability, profiling panel, resazurin fluorescence, basal, 24 h, PK04 Diversity Set (AID 1174);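 further: MM1S multiple myeloma cell line; test concentration not given here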
CONDITIONS: higher = more signal, called active from +8 up or from −8 down
Can you tell me z-score for the items I'm about to list?
// return a plain number; no unit text

Exam item: Which value of z-score has been reported for "COCCOC(=O)N1C(=O)[C@@]2(c3cc(C#CCCO)ccc31)[C@H](c1ccc(O)cc1)N1[C@H](c3ccccc3)[C@H](c3ccccc3)OC(=O)[C@H]1[C@@H]2C(=O)Nc1nc2ccccc2s1" in the records?
Marked response: -0.617

Exam item: Also need CN1CCC(CCCO)=CC1C1CC1 (configuration not stated) , thanks.
Marked response: 1.18

Exam item: Now this one: "CCCNC(=O)[C@@H]1c2ccccc2C(=O)N(Cc2cc(F)cc(C(F)(F)F)c2)[C@H]1c1ccc(CO)cc1"
Marked response: 0.919

Exam item: Consider next the compound "CC(C)[Si]1(C(C)C)OCc2cc(C3CC3)nc(-c3ccccc3)c21" in the same way.
Marked response: 0.972

Exam item: Next: "CC(=O)NCCCC[C@@H]1NC(=O)[C@@H]2C[C@H](C(=O)NCCCCCCN(C)C)[C@H](c3ccc(O)cc3)N2C1=O"
Marked response: 1.12

Exam item: How about this compound: "CCC(=O)[C@]12O[C@@]3([C@@H]4C(=O)OCC[C@@H]41)N(CC)C(C)=C(C(=O)OC)[C@@H](c1ccccc1)N3C2=O"
Marked response: -0.01

Exam item: Also need "O=C1O[C@H](c2ccccc2)[C@H](c2ccccc2)N2[C@H]1[C@@H](C(=O)NC[C@H](O)c1ccccc1)[C@]1(C(=O)Nc3ccc(C#CC4=CCCCC4)cc31)[C@H]2c1ccc(OCCO)cc1" , thanks.
Marked response: -2
